Origin of values: patent EP4512806A1

# System: BT-474
# experiment_description: In vitro cytotoxicity assay (MTT)
# Format: cell-based, human
# stated_conditions: 6 days incubation
measured_quantity: IC50 (nM)
Answers are plain numbers, in nM.

INSERT INTO results (compound, units, numeric_result) VALUES
  ('CC[C@H](CO)Nc1nc(NCc2ccc(-c3ccccn3)cc2)c2ncn(C(C)C)c2n1 [CR8, reference compound]', 'nM', 18.4);

Okay, next one:
IC50 lookup needed for "Brc1cnn2c(NCc3ccc(-c4ccccn4)cc3)nc(N[C@H]3CCNC3)nc12" , thanks.
1.71

====

# Tested on: JIMT-1
# experiment_description: In vitro cytotoxicity assay (MTT)
# Format: cell-based, human
# stated_conditions: 6 days incubation
measured_quantity: IC50 (nM)
Numbers only, in nM.

Form field: reported IC50 of CC[C@H](CO)Nc1nc(NCc2ccc(-c3ccccn3)cc2)c2ncn(C(C)C)c2n1 [CR8, reference compound]
25.2
